- Tested on: Peritoneal macrophage
- METHOD SUMMARY: Antiinflammatory activity in […] mouse Peritoneal macrophages assessed as reduction in LPS-induced NO production by measuring reduction in stimulation index at 10 uM preincubated for 1 hr followed by LPS stimulation measured after 24 hrs by Griess method (reference value: 27.31 +/- 2.56 uM)
- Type: functional
- CONDITION SET: time 25 hrs
Consider the following compounds and their measured Activity readings.
Give the number; µM is assumed, so skip it.

These recorded examples may help you get a feel for the data.
COc1cc(/C=C/C(=O)/C=C(O)/C=C/c2ccc(OC(=O)[C@H](CC(C)C)NC(=O)OCc3ccccc3)c(OC)c2)ccc1OC(=O)[C@H](CC(C)C)NC(=O)OCc1ccccc1: 26.06
COc1cc(/C=C/C(=O)/C=C(O)/C=C/c2ccc(OC(=O)[C@H](Cc3ccccc3)NC(=O)OCc3ccccc3)c(OC)c2)ccc1OC(=O)[C@H](Cc1ccccc1)NC(=O)OCc1ccccc1: 26.33

Now take the following compound into account.
Task: Form entry - test system: Peritoneal macrophage; read-out: Activity; compound: "CC[C@H](C)[C@H](NC(=O)OC(C)(C)C)C(=O)Oc1ccc(/C=C/C(=O)/C=C(O)/C=C/c2ccc(OC(=O)[C@@H](NC(=O)OC(C)(C)C)[C@@H](C)CC)c(OC)c2)cc1OC"
Output: 20.81

====

- System: Mus musculus
- METHOD SUMMARY: Analgesic activity in albino mouse assessed as protection at 10 mg/kg, ip measured after 60 mins by hot plate test (reference value: 0 %)
- Assay type: functional
- CONDITION SET: 1 h
Criterion: Activity strictly under 50%. Met: MET. Not met: NOT MET.

For orientation, consider the following solved cases.
COc1cc(/C=C/C(=O)/C=C(O)/C=C/c2ccc(OC(=O)[C@@H](C)NC(=O)OCc3ccccc3)c(OC)c2)ccc1OC(=O)[C@@H](C)NC(=O)OCc1ccccc1: MET
COc1cc(/C=C/C(=O)/C=C(O)/C=C/c2ccc(OC(=O)[C@@H](C)N)c(OC)c2)ccc1OC(=O)[C@@H](C)N.Cl.Cl: NOT MET
COc1cc(/C=C/C(=O)/C=C(O)/C=C/c2ccc(OC(=O)[C@H](CCSC)NC(=O)OCc3ccccc3)c(OC)c2)ccc1OC(=O)[C@H](CCSC)NC(=O)OCc1ccccc1: MET
COc1cc(/C=C/C(=O)/C=C(O)/C=C/c2ccc(OC(=O)[C@H](N)CCSC)c(OC)c2)ccc1OC(=O)[C@H](N)CCSC.Cl.Cl: MET

Here is the next item to consider.
Task: For this compound, is Activity lower than 50%? "COc1cc(/C=C/C(=O)/C=C(O)/C=C/c2ccc(OC(=O)[C@@H](CCSC)NC(=O)OC(C)(C)C)c(OC)c2)ccc1OC(=O)[C@@H](CCSC)NC(=O)OC(C)(C)C"
Output: NOT MET

====

Consider the following compounds and their measured Activity readings.
- Tested on: Mus musculus
- METHOD SUMMARY: Analgesic activity in albino mouse assessed as protection at 10 mg/kg, ip measured after 120 mins by hot plate test relative to indomethacin
- Assay type: functional
- CONDITION SET: 2 h
Give the number; % is assumed, so skip it.

These recorded examples may help you get a feel for the data.
COc1cc(/C=C/C(=O)/C=C(O)/C=C/c2ccc(OC(=O)C(C)NC(=O)OCc3ccccc3)c(OC)c2)ccc1OC(=O)C(C)NC(=O)OCc1ccccc1 (stereo not drawn): 45.5
COc1cc(/C=C/C(=O)/C=C(O)/C=C/c2ccc(OC(=O)CN)c(OC)c2)ccc1OC(=O)CN.Cl.Cl: 81.9
COc1cc(/C=C/C(=O)/C=C(O)/C=C/c2ccc(OC(=O)[C@H](N)CCSC)c(OC)c2)ccc1OC(=O)[C@H](N)CCSC.Cl.Cl: 54.5
COc1cc(/C=C/C(=O)/C=C(O)/C=C/c2ccc(OC(=O)CNC(=O)OCC3c4ccccc4-c4ccccc43)c(OC)c2)ccc1OC(=O)CNC(=O)OCC1c2ccccc2-c2ccccc21: 100
COc1cc(/C=C/C(=O)/C=C(O)/C=C/c2ccc(OC(=O)[C@@H](N)CCSC)c(OC)c2)ccc1OC(=O)[C@@H](N)CCSC.Cl.Cl: 151
COc1cc(/C=C/C(=O)CC(=O)/C=C/c2ccc(O)c(OC)c2)ccc1O: 76.4
COc1cc(/C=C/C(=O)/C=C(O)/C=C/c2ccc(OC(=O)[C@@H](C)N)c(OC)c2)ccc1OC(=O)[C@@H](C)N.Cl.Cl: 127.1
COc1cc(/C=C/C(=O)/C=C(O)/C=C/c2ccc(OC(=O)CCN)c(OC)c2)ccc1OC(=O)CCN.Cl.Cl: 85.5
COc1cc(/C=C/C(=O)/C=C(O)/C=C/c2ccc(OC(=O)[C@@H](C)NC(=O)OCc3ccccc3)c(OC)c2)ccc1OC(=O)[C@@H](C)NC(=O)OCc1ccccc1: 60
COc1cc(/C=C/C(=O)/C=C(O)/C=C/c2ccc(OC(=O)[C@@H](CCSC)NC(=O)OCc3ccccc3)c(OC)c2)ccc1OC(=O)[C@@H](CCSC)NC(=O)OCc1ccccc1: 187.1

Task: Endpoint output: Activity of CC(C)Cc1ccc(C(C)C(=O)O)cc1 (stereo not drawn) . Value?
Output: 78.1

Task: Endpoint output: Activity of "COc1cc(/C=C/C(=O)/C=C(O)/C=C/c2ccc(OC(=O)[C@@H](CCSC)NC(=O)OC(C)(C)C)c(OC)c2)ccc1OC(=O)[C@@H](CCSC)NC(=O)OC(C)(C)C" . Value?
Output: 169

Task: Endpoint output: Activity of "COc1cc(/C=C/C(=O)/C=C(O)/C=C/c2ccc(OC(=O)[C@H](CCSC)NC(=O)OCC3c4ccccc4-c4ccccc43)c(OC)c2)ccc1OC(=O)[C@H](CCSC)NC(=O)OCC1c2ccccc2-c2ccccc21" . Value?
Output: 32.6

====

- METHOD SUMMARY: Ulcerogenic activity in fasted albino mouse assessed as average number of ulcers in gastric mucosa at 10 mg/kg, po for 3 days (reference value: 0)
- Assay type: toxicity, organism-based
- CONDITION SET: in vivo, 72 h, time 3 day
ENDPOINT: Activity
Respond using a number only.

These recorded examples may help you get a feel for the data.
COc1cc(/C=C/C(=O)CC(=O)/C=C/c2ccc(O)c(OC)c2)ccc1O: 0.33
COc1cc(/C=C/C(=O)/C=C(O)/C=C/c2ccc(OC(=O)[C@H](CCSC)NC(=O)OCc3ccccc3)c(OC)c2)ccc1OC(=O)[C@H](CCSC)NC(=O)OCc1ccccc1: 0.33
COc1cc(/C=C/C(=O)/C=C(O)/C=C/c2ccc(OC(=O)[C@H](CCSC)NC(=O)OCC3c4ccccc4-c4ccccc43)c(OC)c2)ccc1OC(=O)[C@H](CCSC)NC(=O)OCC1c2ccccc2-c2ccccc21: 0
COc1cc(/C=C/C(=O)/C=C(O)/C=C/c2ccc(OC(=O)[C@@H](CCSC)NC(=O)OCc3ccccc3)c(OC)c2)ccc1OC(=O)[C@@H](CCSC)NC(=O)OCc1ccccc1: 0
COc1cc(/C=C/C(=O)/C=C(O)/C=C/c2ccc(OC(=O)[C@@H](N)CCSC)c(OC)c2)ccc1OC(=O)[C@@H](N)CCSC.Cl.Cl: 0

Task: Endpoint output: Activity of "COc1ccc2c(c1)c(CC(=O)O)c(C)n2C(=O)c1ccc(Cl)cc1" . Value?
Output: 2

====

- METHOD SUMMARY: Ulcerogenic activity in fasted albino mouse assessed as average severity of ulcers in gastric mucosa at 10 mg/kg, po for 3 days (reference value: 0)
- Type: toxicity, organism-based
- CONDITION SET: in vivo, 72 h, time 3 day
ENDPOINT: Activity
Respond using a number only.

These recorded examples may help you get a feel for the data.
COc1cc(/C=C/C(=O)/C=C(O)/C=C/c2ccc(OC(=O)[C@@H](N)CCSC)c(OC)c2)ccc1OC(=O)[C@@H](N)CCSC.Cl.Cl: 0
COc1cc(/C=C/C(=O)/C=C(O)/C=C/c2ccc(OC(=O)CCN)c(OC)c2)ccc1OC(=O)CCN.Cl.Cl: 0
COc1cc(/C=C/C(=O)/C=C(O)/C=C/c2ccc(OC(=O)[C@@H](CCSC)NC(=O)OC(C)(C)C)c(OC)c2)ccc1OC(=O)[C@@H](CCSC)NC(=O)OC(C)(C)C: 0
COc1ccc2c(c1)c(CC(=O)O)c(C)n2C(=O)c1ccc(Cl)cc1: 1.67

Task: Endpoint output: Activity of COc1cc(/C=C/C(=O)/C=C(O)/C=C/c2ccc(OC(=O)C(C)NC(=O)OCc3ccccc3)c(OC)c2)ccc1OC(=O)C(C)NC(=O)OCc1ccccc1 (stereo not drawn) . Value?
Output: 0.67

Task: Endpoint output: Activity of "COc1cc(/C=C/C(=O)/C=C(O)/C=C/c2ccc(OC(=O)[C@@H](C)N)c(OC)c2)ccc1OC(=O)[C@@H](C)N.Cl.Cl" . Value?
Output: 0

Task: Endpoint output: Activity of "COc1cc(/C=C/C(=O)/C=C(O)/C=C/c2ccc(OC(=O)CN)c(OC)c2)ccc1OC(=O)CN.Cl.Cl" . Value?
Output: 0

Task: Endpoint output: Activity of "COc1cc(/C=C/C(=O)/C=C(O)/C=C/c2ccc(OC(=O)CNC(=O)OCC3c4ccccc4-c4ccccc43)c(OC)c2)ccc1OC(=O)CNC(=O)OCC1c2ccccc2-c2ccccc21" . Value?
Output: 0

Task: Endpoint output: Activity of "COc1cc(/C=C/C(=O)/C=C(O)/C=C/c2ccc(OC(=O)[C@H](CCSC)NC(=O)OCC3c4ccccc4-c4ccccc43)c(OC)c2)ccc1OC(=O)[C@H](CCSC)NC(=O)OCC1c2ccccc2-c2ccccc21" . Value?
Output: 0
